B1: PRKX (parent)
chain: KLLVVDRTRRLGNMKNGANDVKHH

Variants of: B1
Measurement Protocol: protein stability index of a GFP-peptide fusion (GPS, HEK-293T) (PSI 1-6); higher = more stable;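 further: lentivirally expressed fusions sorted by FACS into six bins by GFP to DsRed ratio, PSI derived from sequencing read proportions per bin multiplied by bin number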
Condition Description: c terminus: a fixed tail appended
Cut-off 3 on protein stability index, inclusive. At or above means T; below means F.

- Input Sequence: "KLLVVDRTRRLGQMKNGANDVKHH"
  Qualitative Label: "F"
- Input Sequence: "KLLVPDRTRRLGNMKNGANDVKHH"
  Qualitative Label: "T"
- Input Sequence: "KLLVVDRTRRLGNMKNGANYVKHH"
  Qualitative Label: "F"
- Input Sequence: "KLLVVDRTRRLGNMKNGANDVKTH"
  Qualitative Label: "T"
- Input Sequence: "KLLVVDRTRRLGNMKNGANDRKHH"
  Qualitative Label: "F"
- Input Sequence: "KLLVVDRTRRLGNMKNGANDVKRH"
  Qualitative Label: "F"
- Input Sequence: "KLLVVDRTRRLGDMKNGANDVKHH"
  Qualitative Label: "T"
- Input Sequence: "KLLVVDFTRRLGNMKNGANDVKHH"
  Qualitative Label: "F"
- Input Sequence: "KLLVGDRTRRLGNMKNGANDVKHH"
  Qualitative Label: "T"
- Input Sequence: "KLLVVDRTRRLGNMKNGANDVKLH"
  Qualitative Label: "F"
- Input Sequence: "KLLVVDRTRRLGNMKNGANSVKHH"
  Qualitative Label: "F"
- Input Sequence: "KLLVVDRTRRLGNMKNGANDVKKH"
  Qualitative Label: "T"
- Input Sequence: "KLLVVDRTRRLGNMLNGANDVKHH"
  Qualitative Label: "F"
- Input Sequence: "KLLVVDRTRRLQNMKNGANDVKHH"
  Qualitative Label: "T"
- Input Sequence: "DLLVVDRTRRLGNMKNGANDVKHH"
  Qualitative Label: "T"
- Input Sequence: "KLLVVDRTRRLGNMKNGANDAKHH"
  Qualitative Label: "T"
- Input Sequence: "KLLVVDRTRRLGNMKNGANMVKHH"
  Qualitative Label: "F"
- Input Sequence: "KLLVVDRTRRLGNMKNGANDVFHH"
  Qualitative Label: "F"
- Input Sequence: "KLLVVDRTRRLGNWKNGANDVKHH"
  Qualitative Label: "F"
- Input Sequence: "KLLVVDRTRRLGNMKNGANKVKHH"
  Qualitative Label: "F"
- Input Sequence: "KLLVVDRTRRLGNMKNGANDVKWH"
  Qualitative Label: "T"
- Input Sequence: "KLLVVDRTRRLWNMKNGANDVKHH"
  Qualitative Label: "F"
- Input Sequence: "KLLPVDRTRRLGNMKNGANDVKHH"
  Qualitative Label: "T"
- Input Sequence: "KLLVVDRTIRLGNMKNGANDVKHH"
  Qualitative Label: "F"
- Input Sequence: "KLLVVDRTRRLGNMKNGANDGKHH"
  Qualitative Label: "T"
- Input Sequence: "KLLVVDRTRRLGNMWNGANDVKHH"
  Qualitative Label: "F"
- Input Sequence: "KLLVVDRTRRLGCMKNGANDVKHH"
  Qualitative Label: "F"
- Input Sequence: "KLLVVDRTRRLGNVKNGANDVKHH"
  Qualitative Label: "T"
- Input Sequence: "KLLVVDRTRRLGNMKNGANDLKHH"
  Qualitative Label: "F"
- Input Sequence: "KLLVVDRTRRLGNMKNGAFDVKHH"
  Qualitative Label: "F"
- Input Sequence: "KLLVVDRTRRLGNMKNGYNDVKHH"
  Qualitative Label: "F"
- Input Sequence: "KLLVVFRTRRLGNMKNGANDVKHH"
  Qualitative Label: "T"
- Input Sequence: "KLLVVDRTRRLRNMKNGANDVKHH"
  Qualitative Label: "F"
- Input Sequence: "KLLVVDRTRRLGNQKNGANDVKHH"
  Qualitative Label: "T"
- Input Sequence: "KLLVVDRTRRLGNMKNGAWDVKHH"
  Qualitative Label: "F"
- Input Sequence: "KLLVVRRTRRLGNMKNGANDVKHH"
  Qualitative Label: "F"
- Input Sequence: "KLLCVDRTRRLGNMKNGANDVKHH"
  Qualitative Label: "T"
- Input Sequence: "KLLVVDRTRRLGNMKGGANDVKHH"
  Qualitative Label: "F"
- Input Sequence: "KLLVVDRTRRLGNMKRGANDVKHH"
  Qualitative Label: "F"
- Input Sequence: "KDLVVDRTRRLGNMKNGANDVKHH"
  Qualitative Label: "T"
